molecular target: Misshapen-like kinase 1 (Homo sapiens); details: at 1 µM
Description: GSK_PKIS: MINK mean inhibition at 1 uM [Nanosyn]
Parameter measured: inhibition (%)
Express the result in % but write the number alone.

Cc1ccc(C(=O)NC2CCCCC2)cc1-c1ccc(C(=O)NCC2CC2)cc1 = 1.64
O=C1NC(=O)C(c2ccccc2Cl)=C1Nc1cccc(O)c1 = 5.96
CN(C)c1cc2c(Nc3ccc4nc(Cc5ccccc5)[nH]c4c3)ncnc2cn1 = 9.2
Nc1nc(-c2ccccn2)c(-c2ccc3ncccc3n2)s1 = 7.86
CCn1c(-c2nonc2N)nc2c(N3CCCC3)nccc21 = 2.4

Kindly consider the entry below.
Measured inhibition, Fc1cccc(COc2ccc(Nc3ncnc4sc(-c5cccs5)cc34)cc2Cl)c1 : 2.51
